Tested on: NCI-H1341 complex spheroids, percent test/control
protocol-description: Anticancer human tumor NCI-H1341 cell line growth inhibition [AhR];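 note: spheroids exposed to agents for seven days before readout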
conditions-used: second compound 10 µM; first compound 0.949 µM; active compounds read low
reported-property: viability, T/C (%)

[[record]]
compound = "CCN(c1cc(-c2ccc(CN3CCOCC3)cc2)cc(C(=O)NCc2c(C)cc(C)[nH]c2=O)c1C)C1CCOCC1 + Cc1cncc(-c2nc(NCCc3c[nH]c4ccccc34)c3ncn(C(C)C)c3n2)c1"
reported_property = "viability, T/C"
reported_value = 34.4

[[record]]
compound = "O=C(C=Cn1cnc(-c2cc(C(F)(F)F)cc(C(F)(F)F)c2)n1)NNc1cnccn1 + CC(CO)NC(=O)c1cc(-c2ccc(Cl)cc2)nn(-c2cnn(C)c2)c1=O"
reported_property = "viability, T/C"
reported_value = 5.11

[[record]]
compound = "CCN(c1cc(-c2ccc(CN3CCOCC3)cc2)cc(C(=O)NCc2c(C)cc(C)[nH]c2=O)c1C)C1CCOCC1 + CC(CO)NC(=O)c1cc(-c2ccc(Cl)cc2)nn(-c2cnn(C)c2)c1=O"
reported_property = "viability, T/C"
reported_value = 65.7


---

Below is a list of entries, each paired with its recorded viability, T/C value.
Test system: NCI-H1341 complex spheroids, percent test/control
protocol-description: Anticancer human tumor NCI-H1341 cell line growth inhibition [AhR];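 note: spheroids exposed to agents for seven days before readout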
conditions-used: second compound 10 µM; first compound 0.000949 µM; active compounds read low
reported-property: viability, T/C (%)

[[record]]
compound = "CC(C)CC(NC(=O)C(Cc1ccccc1)NC(=O)c1cnccn1)B(O)O (stereo unspecified) + Cc1ccccc1N=Nc1ccc(NC(=O)c2ccnn2C)c(C)c1"
assay_target = "NCI-H1341 complex spheroids, percent test/control"
reported_value = 50.5

[[record]]
compound = "CC(C)CC(NC(=O)C(Cc1ccccc1)NC(=O)c1cnccn1)B(O)O (stereo unspecified) + CC(CO)NC(=O)c1cc(-c2ccc(Cl)cc2)nn(-c2cnn(C)c2)c1=O"
assay_target = "NCI-H1341 complex spheroids, percent test/control"
reported_value = 83.4

[[record]]
compound = "CC(C)CC(NC(=O)C(Cc1ccccc1)NC(=O)c1cnccn1)B(O)O (stereo unspecified) + Cc1cncc(-c2nc(NCCc3c[nH]c4ccccc34)c3ncn(C(C)C)c3n2)c1"
assay_target = "NCI-H1341 complex spheroids, percent test/control"
reported_value = 28

[[record]]
compound = "Nc1ncn(C2CC(O)C(CO)S2)c(=O)n1 (stereo unspecified) + Cc1cncc(-c2nc(NCCc3c[nH]c4ccccc34)c3ncn(C(C)C)c3n2)c1"
assay_target = "NCI-H1341 complex spheroids, percent test/control"
reported_value = 45

[[record]]
compound = "CCc1c2c(nc3ccc(O)cc13)-c1cc3c(c(=O)n1C2)COC(=O)[C@]3(O)CC + Cc1cncc(-c2nc(NCCc3c[nH]c4ccccc34)c3ncn(C(C)C)c3n2)c1"
assay_target = "NCI-H1341 complex spheroids, percent test/control"
reported_value = 15.2

[[record]]
compound = "Nc1ncn(C2CC(O)C(CO)S2)c(=O)n1 (stereo unspecified) + CC(CO)NC(=O)c1cc(-c2ccc(Cl)cc2)nn(-c2cnn(C)c2)c1=O"
assay_target = "NCI-H1341 complex spheroids, percent test/control"
reported_value = 73.3


---

Test system: NCI-H1341 complex spheroids, percent test/control
protocol-description: Anticancer human tumor NCI-H1341 cell line growth inhibition [AhR];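 note: spheroids exposed to agents for seven days before readout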
conditions-used: second compound 10 µM; first compound 0.01 µM; active compounds read low
Below is a list of entries, each paired with its recorded viability, T/C value.
reported-property: viability, T/C (%)

[[record]]
compound = "Cn1ncnc1C1c2n[nH]c(=O)c3cc(F)cc(c23)NC1c1ccc(F)cc1 (stereo unspecified) + Cc1ccccc1N=Nc1ccc(NC(=O)c2ccnn2C)c(C)c1"
reported_property = "viability, T/C"
unit_of_measurement = "%"
reported_value = 59.9

[[record]]
compound = "Nc1ncn(C2CC(O)C(CO)O2)c(=O)n1 (stereo unspecified) + Cc1cncc(-c2nc(NCCc3c[nH]c4ccccc34)c3ncn(C(C)C)c3n2)c1"
reported_property = "viability, T/C"
unit_of_measurement = "%"
reported_value = 26.9

[[record]]
compound = "CC1COCCN1c1cc(-c2ccnn2C)c2ccnc(-c3ccn[nH]3)c2n1 (stereo unspecified) + Cc1ccccc1N=Nc1ccc(NC(=O)c2ccnn2C)c(C)c1"
reported_property = "viability, T/C"
unit_of_measurement = "%"
reported_value = 51

[[record]]
compound = "Cn1ncnc1C1c2n[nH]c(=O)c3cc(F)cc(c23)NC1c1ccc(F)cc1 (stereo unspecified) + Cc1cncc(-c2nc(NCCc3c[nH]c4ccccc34)c3ncn(C(C)C)c3n2)c1"
reported_property = "viability, T/C"
unit_of_measurement = "%"
reported_value = 42.1

[[record]]
compound = "Cn1ncnc1C1c2n[nH]c(=O)c3cc(F)cc(c23)NC1c1ccc(F)cc1 (stereo unspecified) + CC(CO)NC(=O)c1cc(-c2ccc(Cl)cc2)nn(-c2cnn(C)c2)c1=O"
reported_property = "viability, T/C"
unit_of_measurement = "%"
reported_value = 65.2

[[record]]
compound = "Nc1ncn(C2CC(O)C(CO)O2)c(=O)n1 (stereo unspecified) + CC(CO)NC(=O)c1cc(-c2ccc(Cl)cc2)nn(-c2cnn(C)c2)c1=O"
reported_property = "viability, T/C"
unit_of_measurement = "%"
reported_value = 69.6


---

System: NCI-H1341 complex spheroids, percent test/control
protocol-description: Anticancer human tumor NCI-H1341 cell line growth inhibition [AhR]; active = viability on the fitted dose curve at most 10% of control; inactive = the rest;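 note: spheroids exposed to agents for seven days before readout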
conditions-used: second compound 1 µM; first compound 3.16 µM
Possible outcomes: 1 (active), -1 (inactive)

[[record]]
compound = "CC1(C)CCC(CN2CCN(c3ccc(C(=O)NS(=O)(=O)c4ccc(NCC5CCOCC5)c([N+](=O)[O-])c4)c(Oc4cnc5[nH]ccc5c4)c3)CC2)=C(c2ccc(Cl)cc2)C1 + Cc1cncc(-c2nc(NCCc3c[nH]c4ccccc34)c3ncn(C(C)C)c3n2)c1"
label_value = -1

[[record]]
compound = "Nc1ccn(C2OC(CO)C(O)C2(F)F)c(=O)n1 (stereo unspecified) + Cc1cncc(-c2nc(NCCc3c[nH]c4ccccc34)c3ncn(C(C)C)c3n2)c1"
label_value = -1

[[record]]
compound = "CC1COCCN1c1cc(C2(S(C)(=N)=O)CC2)nc(-c2ccnc3[nH]ccc23)n1 (stereo unspecified) + Cc1cncc(-c2nc(NCCc3c[nH]c4ccccc34)c3ncn(C(C)C)c3n2)c1"
label_value = -1

[[record]]
compound = "NS(=O)(=O)OCC1CC(n2ccc3c(NC4CCc5ccccc54)ncnc32)CC1O (stereo unspecified) + Cc1ccccc1N=Nc1ccc(NC(=O)c2ccnn2C)c(C)c1"
label_value = 1

[[record]]
compound = "CC(C)c1c(-c2ccccc2)nc2c(C#N)c[nH]n2c1=O + Cc1cncc(-c2nc(NCCc3c[nH]c4ccccc34)c3ncn(C(C)C)c3n2)c1"
label_value = -1

[[record]]
compound = "COc1ccc([C@@H](O)c2cc(-c3ncnc4cc(N5CCOCC5)ccc34)c(F)cc2Cl)nn1 + CC(CO)NC(=O)c1cc(-c2ccc(Cl)cc2)nn(-c2cnn(C)c2)c1=O"
label_value = -1


---

Test system: NCI-H1341 complex spheroids, percent test/control
protocol-description: Anticancer human tumor NCI-H1341 cell line growth inhibition [AhR];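 note: spheroids exposed to agents for seven days before readout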
conditions-used: second compound 0.316 µM; first compound 0.316 µM; active compounds read low
Below is a list of entries, each paired with its recorded viability, T/C value.
reported-property: viability, T/C

[[record]]
compound = "Nc1ccccc1NC(=O)c1ccc(CNC(=O)OCc2cccnc2)cc1 + Cc1ccccc1N=Nc1ccc(NC(=O)c2ccnn2C)c(C)c1"
assay_target = "NCI-H1341 complex spheroids, percent test/control"
reported_property = "viability, T/C"
reported_value = "70.3%"

[[record]]
compound = "CC(C)c1c(-c2ccccc2)nc2c(C#N)c[nH]n2c1=O + Cc1ccccc1N=Nc1ccc(NC(=O)c2ccnn2C)c(C)c1"
assay_target = "NCI-H1341 complex spheroids, percent test/control"
reported_property = "viability, T/C"
reported_value = "84.2%"

[[record]]
compound = "O=C(c1cc(Cc2n[nH]c(=O)c3ccccc23)ccc1F)N1CCN(C(=O)C2CC2)CC1 + Cc1cncc(-c2nc(NCCc3c[nH]c4ccccc34)c3ncn(C(C)C)c3n2)c1"
assay_target = "NCI-H1341 complex spheroids, percent test/control"
reported_property = "viability, T/C"
reported_value = "64.4%"

[[record]]
compound = "CC1COCCN1c1cc(C2(S(C)(=N)=O)CC2)nc(-c2ccnc3[nH]ccc23)n1 (stereo unspecified) + CC(CO)NC(=O)c1cc(-c2ccc(Cl)cc2)nn(-c2cnn(C)c2)c1=O"
assay_target = "NCI-H1341 complex spheroids, percent test/control"
reported_property = "viability, T/C"
reported_value = "70.1%"

[[record]]
compound = "O=C(C=Cc1cccc(S(=O)(=O)Nc2ccccc2)c1)NO + CC(CO)NC(=O)c1cc(-c2ccc(Cl)cc2)nn(-c2cnn(C)c2)c1=O"
assay_target = "NCI-H1341 complex spheroids, percent test/control"
reported_property = "viability, T/C"
reported_value = "48.6%"

[[record]]
compound = "CC(C)c1c(-c2ccccc2)nc2c(C#N)c[nH]n2c1=O + Cc1cncc(-c2nc(NCCc3c[nH]c4ccccc34)c3ncn(C(C)C)c3n2)c1"
assay_target = "NCI-H1341 complex spheroids, percent test/control"
reported_property = "viability, T/C"
reported_value = "95.5%"

